A collection of molecules and their measured MS_h_% (remaining amount of compound after reaction, 0 minute = 100%)
- test.method.notes: Metabolic stability test in pooled human liver microsomes
- Type: in vitro ADME
- settings: human liver microsomes 0.5 mg protein/mL, 1 mmol/L NADPH, 37° C., 30 minutes
- Method: Using a commercially available pooled human liver microsomes, a compound of the present invention was reacted for a constant time, a remaining rate was calculated by comparing a reacted sample and an unreacted sample, thereby, a degree of metabolism in liver was assessed. […]
Give your result in % as a bare value.

- CCc1nc2ccc(Cl)cn2c1C(=O)NCc1ccc(N2CCN(c3ccc(OC(F)(F)F)cc3F)[C@@H](C)C2)c(F)c1.Cl: 76
- CCc1nc2cc(F)ccn2c1C(=O)NCc1ccc(N2CCN(c3ccc(OC(F)(F)C(F)(F)F)cc3)[C@@H](C)C2)c(F)c1.Cl: 95
- CCc1nc2ccc(Cl)cn2c1C(=O)NCc1ccc(-n2cc3c(n2)CN(c2ccc(OC(F)(F)F)cc2)C3)c(F)c1.Cl: 62
- CCc1nc2cc(F)ccn2c1C(=O)NCc1ccc(N2CCN(c3ccc(OC(C)C)cc3)[C@@H](C)C2)c(F)c1.Cl: 88
- Cc1nc2ccc(F)cn2c1C(=O)NCc1ccc(N2CCC(c3ccc(OC(F)(F)F)cc3)CC2)c(F)c1.Cl: 94

Now for the molecule whose MS_h_% (remaining amount of compound after reaction, 0 minute = 100%) we want.
Data request: # get_value(readout='MS_h_% (remaining amount of compound after reaction, 0 minute = 100%)', item= CCc1nc2cc(C)c(F)cn2c1C(=O)NCc1ccc(N2CCN(c3ccc(OC(F)(F)F)cc3)[C@@H](C)C2)c(F)c1 )
Data returned: 59
